Test: PhoP regulon inhibitor project modified counter assay, GFP fluorescence readout, dose response (AID 1985)
Details: S. Typhi, 4 h; series mostly up to 150 µM
In all, about 2,300 compounds went through this assay and about 1,000 (43%) were called active. The set was probably picked from earlier hits. The list shows a part of the results. Entries with a potency or affinity are not part of this list.
measured-quantity: outcome

Please report the recorded outcome for CCOc1ccc(-c2nc(N)ncc2-c2ccccc2)c(O)c1 .
inactive

Reported outcome for O=C(CC(=O)NCc1ccccc1)NCc1ccccc1 : what is it?
inactive

Endpoint output: outcome of Oc1ccc(C=Nc2ccc3ncccc3c2)c(O)c1 . Value?
inactive

Given the entry CCc1nn(CCCN2CCN(c3cccc(Cl)c3)CC2)c(=O)n1CCOc1ccccc1 , report its measured outcome.
inactive

Which outcome reading was recorded for the molecule C[C@@H](NC(=O)[C@@H]1Cc2ccccc2CN1)C(=O)NCC1CCCO1 (stereo partly specified) ?
inactive

Now consider the entry below.
What does the record list as outcome for Cc1[nH]c(=O)[nH]c(=O)c1S(=O)(=O)N1CCCC(C(=O)NCc2ccc3c(c2)OCO3)C1 (stereo unspecified) ?
inactive
